# ASSAY_TEXT: Mouse pharmacokinetics, single IV or PO dose, plasma LC/MS/MS
# Type: in vivo
# EXPERIMENTAL_CONDITIONS: mouse, plasma; CD1 mice, IV 1 mg/kg, solution in 20% PEG400/20% PG/60% of 20% HPBCD solution in water; read-out: PK-Mouse: IV Cl
ATTRIBUTE_MEASURED: clearance

>  <COMPOUND>
Cc1cc(C(C)Nc2ccc(F)cc2C(=O)O)c2nc(N3CCC(C)(C)CC3)n(C)c(=O)c2c1 (single isomer, unassigned) [Example 29]

>  <DATA_VALUE>
8.7 mL/min/kg

$$$$
>  <COMPOUND>
CC(Nc1ccccc1C(=O)O)c1cc(F)cc2c(=O)n(C)c(N3CCN(CC(F)(F)F)CC3)nc12 (single isomer, unassigned) [Example 35]

>  <DATA_VALUE>
59.5 mL/min/kg

$$$$

Origin of measurements: patent US20260242398A1
